# method notes: Pharmacokinetics after oral administration of LJF extract in CCl4-induced liver injury model rats
# Assay type: in vivo, Sprague-Dawley rats
# measurement conditions: male, Sprague-Dawley, rat, in vivo, po, 15.75 g/kg
Exercise: for every item that follows, state its recorded AUC(0-t).
Remember to put the unit after the number in your answer.

Count: 2. Required value per item: AUC(0-t).
1. C=C[C@H]1[C@H](O[C@@H]2O[C@H](CO)[C@@H](O)[C@H](O)[C@H]2O)OC=C2C(=O)OCC[C@H]21 [Sweroside]
2. C=C[C@H]1[C@H](O[C@@H]2O[C@H](CO)[C@@H](O)[C@H](O)[C@H]2O)OC=C(C(=O)OC)[C@H]1CC(=O)O

Reply:
1: 16000 ng·h/mL; 2: 15000 ng·h/mL
